Quick reference: melting point of the listed items.

>>> print(df.to_string())
                                   compound        measure         result
0  CC(=O)C(=Cc1cccc([N+](=O)[O-])c1)P1(=O)OCCCO1  melting point  144 to 146 °C
1  Cc1cc(Oc2ncc(C(F)(F)F)cc2Cl)nn1C(=O)NCC(C)C  melting point    45 to 47 °C
2  CC(=O)Nc1nc2c(Oc3cc(-c4ccc(C(F)(F)F)cc4)c(-c4ccc(F)cc4)cn3)cccc2s1  melting point  112 to 130 °C
3  CN(C)c1ccc(CN2C(=O)C3(COc4cc5c(cc43)OCCO5)c3ccccc32)nc1 (centres undefined)  melting point  229 to 236 °C
4  Cc1c(C)c2c(c(C)c1N)CC(C)(CN1CCOCC1)O2 (centres undefined)  melting point  114 to 115 °C

Prompt: Consider the compound COc1cc(CNC(=O)c2ccc3n2Cc2ccccc2N(C(=O)CSc2ccc(Br)cc2)C3)ccc1O and give its measured melting point.
Response: 168 °C

Prompt: Quick one: melting point of COc1ccc(C=C2OC(=O)c3ccccc32)cc1N ?
Response: 148 to 153 °C

Prompt: Request the reported melting point associated with COc1ccc(S(=O)(=O)c2cc3c(cc2C)OC(C(=O)O)O3)cc1NC(C)=O (centres undefined)
Response: 230 °C

Prompt: Any idea what its melting point is? The compound is CN1Cc2c(C#CC(C)(C)O)ncn2-c2cccc(Br)c2C1=O
Response: 207 to 208 °C
